meta.source: paper PMC5540273

Listed here: items and their measured %Inh.
- Tested on: IRAK3;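 further: KINOMEscan kinase panel screen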
- Condition Label: concentration: 1 μM, replicates: in singlicate; n = 1
Measured Endpoint: %Inh (%)

1. COc1ccc(-c2cc3c(C)nc(N)nc3n([C@H]3CC[C@H](OCCO)CC3)c2=O)cn1; 19
2. CCS(=O)(=O)c1ccc(OC)c(Nc2ncc(-c3ccc(F)cc3)o2)c1.Cl; 0
3. CN1C(=O)C(Nc2ccccc2)=C(c2ccccc2)C1=O; 0
4. O=C1NC(=O)C(c2ccccc2)=C1Nc1cccc(O)c1; 0
5. CCn1c(-c2nonc2N)nc2ccccc21; 0
6. Cc1nnc(-c2ccc(C)c(-c3ccc(C(=O)O)cc3)c2)o1; 0
7. Cc1cc(Nc2nc(-c3cccc(C)n3)nc3ccccc23)ccn1; 0
8. CCS(=O)c1ccc(-c2coc3ccc(-c4nnc(C)o4)cc23)cc1 (centres unmarked); 0
9. COc1cc2ncn(-c3cc(OCc4ccncc4)c(C(N)=O)s3)c2cc1OC; 0
10. CC(C)(C)c1ccc(C(=O)Nc2cn3cc(-c4ccccc4)ccc3n2)cc1; 12
11. CCCNC(=O)Nc1ccc(Oc2ncnc3ccn(C)c23)cc1; 0
12. COC(=O)c1c(-c2ccccc2)c2cc(Br)ccc2c(=O)n1Cc1ccc(NC(=O)CCC(=O)O)cc1; 25
13. Cl.NS(=O)(=O)c1cccc(Nc2cc(-c3ccc(F)cc3)n[nH]2)c1; 0
14. Nc1nc(-c2ccccc2F)c(-c2ccnc3ccccc23)s1; 17
